// provenance: the supplement of paper PMC10126150

System: ATP;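 further: ATP exposure 15 min at 22 °C before imaging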
protocol: switch fluorescence ratio, 500 uM ATP over buffer (Cy3 cluster intensity, sum of 5 cycles each) (fold (ratio)); higher = stronger signal-on switching upon ATP binding; sequences stand for … in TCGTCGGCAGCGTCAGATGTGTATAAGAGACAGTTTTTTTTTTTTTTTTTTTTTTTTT…TC
measurement.parameters: aptamer strand: ATP DNA aptamer (quencher-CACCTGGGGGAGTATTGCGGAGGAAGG + anchor), 100 nM annealed; ATP concentration: 500 uM
Each entry gets No if its switch fluorescence ratio stays under 1, and Yes if its switch fluorescence ratio is 1 or above.

polymer.sequence: CCTATAATAT
classification: Yes

polymer.sequence: AGTCTGGGGG
classification: No

polymer.sequence: GAGTTTTTTG
classification: Yes

polymer.sequence: ACTAGGTCAT
classification: Yes

polymer.sequence: TTAAGTGTAA
classification: No

polymer.sequence: ACAAGGGGCG
classification: Yes

polymer.sequence: TGTGCTGGTG
classification: Yes

polymer.sequence: TCCAGGTAGT
classification: Yes

polymer.sequence: TGACCGTAGA
classification: Yes

polymer.sequence: TAAAAGAGAT
classification: Yes

// next entry
Request: Quick check, switch fluorescence ratio >= 1? `CTGGGGTGTA`
Result: Yes
